- Test system: UACC-62 melanoma
- assay: NCI tumour cell line growth inhibition, 48 h; in the data active = GI50 below about 0.43 µM; inactive = the rest
Classes to choose from: true = active, false = inactive

1) CN(Cc1cnc2nc(N)nc(N)c2n1)c1c(Cl)cc(C(=O)NC(CCC(=O)O)C(=O)O)cc1Br (centres undefined); true
2) C=C(c1ccc(C(=O)NCCCn2ccnc2)cc1)c1cc2c(cc1C)C(C)(C)CCC2(C)C; false
3) Cn1cc(C2=C(c3cccc([N+](=O)[O-])c3)C(=O)NC2=O)c2ccccc21; false

For CN1CCC(C(=O)Nc2n[nH]c3nnc(-c4ccccc4)cc23)CC1 , which call appears in the assay record?
false

----------
- System: NCI-H226 lung
- assay: NCI tumour cell line growth inhibition, 48 h
For each record, write down the corresponding TGI.

Use these answered entries as a reference point.
1. Oc1ccccc1/C=N/c1nc(-c2ccccc2)cs1; > 100 µM
2. Cc1ccc(-n2cc(/C(N)=N/O)c3ccccc3c2=O)cc1; > 100 µM
3. O=c1ccc(=O)c2c1c1[nH]c3ccccc3c1c1c(=O)c3ccccc3c(=O)c21; > 10 µM

I need TGI for every entry listed below, if you could help.
1. COc1ccc2c3c(c4cc(OC)c(OC)cc4c2c1)CN1CCC[C@H]1[C@@H]3O
2. COc1ccc([C@H]2c3[nH]c4ccccc4c3C[C@H]3C(=O)N(CCCCCCC(=O)NO)CC(=O)N23)cc1
3. c1ccc(CN2CCC(CNc3ncnc4ccccc34)C2)cc1 (configuration not stated)

11.5 µM
> 33.3 µM
> 100 µM

Working through the 4 compounds below one at a time, give TGI for each.
1. COc1cc(OC)c(OC)cc1/C=C\c1ccnc2ccccc12
2. Nc1ncnc2c1ncn2C1C(O)C=C(CO)C1O (configuration not stated)
3. NCC[PH+](c1ccccc1)c1ccccc1.NCC[PH+](c1ccccc1)c1ccccc1.[Cl-].[Pt+4]
4. CC1OC23CCCCC2C(C#N)(C#N)C1(C#N)C(=N)O3 (configuration not stated)

1: 30.2 µM; 2: > 625 µM; 3: > 100 µM; 4: > 100 µM

# per-item lookup of TGI; items listed below
1. COc1ccc(C2CC(c3cccc(Nc4ccncc4)c3)=NN2c2ccccc2)cc1 (configuration not stated)
2. O=C(/C=N/O)Nc1cccc(Cl)c1I
3. COc1cc(/C=C2\C(=O)N(c3ccc(Cl)cc3)C(c3ccccc3)S2(=O)=O)cc(OC)c1OC (configuration not stated)
4. c1ccc(-c2nc3ccccc3[nH]2)c(OCCCCCOc2ccccc2-c2nc3ccccc3[nH]2)c1
5. Nc1ccc2c3c1cccc3c(=O)n1c3ccc(Cc4ccc5c(c4)nc4c6ccc(N)c7cccc(c(=O)n54)c76)cc3nc21
6. CC[P+](c1ccccc1)(N(C)C)N(C)C
7. COc1ccccc1CNCCCN1C(=O)c2ccc3c4c(ccc(c24)C1=O)C(=O)N(CCCNCCCCN)C3=O

8.83 µM
> 100 µM
> 100 µM
47.4 µM
> 100 µM
> 100 µM
2.55 µM

----------
- System: SF-539 CNS
- assay: NCI tumour cell line growth inhibition, 48 h
experimentalReadout: TGI

The examples below pair each entry with its known result.
1. c1ccc2c(c1)ccc1cc3cc(NCCCCNc4ccc5nc6c(ccc7ccccc76)cc5c4)ccc3nc12; 2.88 µM
2. Cn1cc(C2=C(c3cccc([N+](=O)[O-])c3)C(=O)NC2=O)c2ccccc21; > 25 µM
3. CC(C)(C)C(=O)C(N)C(=O)C(C)(C)C; > 100 µM
4. O=C(c1ccccc1)C1C(c2ccccc2[N+](=O)[O-])N1C1CCCCC1 (configuration not stated); 4.77 µM
5. CN(C)CN(C)c1nc(N(C)C)nc(N(C)C)n1; > 100 µM
6. Clc1ccc(/C=C/c2csnn2)cc1; > 100 µM

Return reported TGI values for all items listed beneath this line.
1. O=[N+]([O-])C(/C=C(\Cl)[N+](=O)[O-])=C(Nc1ccccc1)Nc1ccccc1
2. CC(C)C(Nc1c2ccccc2[n+](C)c2ccccc12)C(=O)O (configuration not stated)
3. CCCCCCC1CCCCN1C(c1ccccc1)C(O)c1ccccc1 (configuration not stated)
4. Cc1ccccc1NC(=O)C(=O)CC(=O)c1sc(-n2nc(-c3ccccc3)cc2-c2ccccc2)nc1C
5. CN(CC(=O)O)c1ncc2c(n1)-c1ccccc1CC2

24 µM
> 100 µM
24.3 µM
> 100 µM
> 100 µM

Quick batch: TGI for everything below.
1. CCOC(=O)C(NC(=O)c1ccccc1)(Nc1ccc(S(=O)(=O)Nc2cc(C)on2)cc1)C(F)(F)F (configuration not stated)
2. COc1ccc(N=C2C(=O)Nc3ccc(Br)cc32)cc1
3. COc1cc(C(=O)/C=C/c2c(C)n([O-])c3ccc(Cl)cc3[n+]2=O)cc(OC)c1OC
4. CC1(O)CC23CC(O)C4(O)C(CC(O)C4(C)C)C(C)(O)C2CCC1C3O (configuration not stated)
5. CCN(CCCl)c1cc(CN(C)C)cc(NC(=O)c2ccc(C(=O)Nc3cccc(N(CCCl)NN)c3)cc2)c1
6. Nc1ncnc2c1ncn2C1C(O)C=C(CO)C1O (configuration not stated)

["> 100 µM", "35.8 µM", "27.4 µM", "> 100 µM", "0.56 µM", "> 625 µM"]

----------
- System: KM20L2 colon
- assay: NCI tumour cell line growth inhibition, 48 h
experimentalReadout: TGI

Consider the reported TGI for these molecules:
1. Nc1nc2c(ncn2C2OC(CO)C(O)C2O)c(=O)[nH]1 (stereo not given); 214 µM
2. Cc1cc(C)c(C2=NO[C@@H]3[C@H]2C(=O)C=C2N(Cc4ccccc4)CCO[C@@]23O)c(C)c1; > 100 µM
3. COc1ccc(C2C(C(=O)O)=C(COC(C)=O)Oc3cc4c(cc32)OCO4)c(OC)c1 (stereo not given); > 100 µM
4. O=C(CC/C(CC(=O)c1ccc(Cl)cc1)=N\O)Nc1cccc(Cl)c1; > 100 µM

Given item NC(=O)C1C(=O)Oc2cccnc21 (stereo not given) , the value recorded as its TGI is > 100 µM

----------
- Tested on: DMS 114 small cell lung
- assay: NCI tumour cell line growth inhibition, 48 h
Assign TGI to each entry below.

Batch request: TGI for each of the following compounds.
1. Cc1cc(N(CCC#N)CCC#N)ccc1/C=C1N=C(/C=C\c2ccccc2)N(c2ccc(C(=O)O)cc2)C\1=O
2. CNC(=O)N(CCCCC(NC(C)=O)C(=O)NCc1ccccc1)Cc1ccccc1 (stereo unspecified)

> 100 µM
> 100 µM

----------
- System: HL-60(TB) leukemia
- assay: NCI tumour cell line growth inhibition, 48 h
experimentalReadout: TGI (µM)
One number for each entry, in µM.

1. O=C(Nc1ccc(-n2cc(-c3ccncc3)c(-c3ccc(Cl)c(O)c3)n2)cc1)c1ccc(Cl)c(Cl)c1; 6.35
2. Cc1ccc(/C=C2\CCCC(C(NO)c3ccc(C)cc3)C2=NO)cc1 (stereo unspecified); 40.1

Form: molecule = O=[N+]([O-])C(/C=C(\Cl)[N+](=O)[O-])=C(Nc1ccccc1)Nc1ccccc1 ; TGI = 14.9

----------
- System: EKVX NSCLC
- assay: NCI tumour cell line growth inhibition, 48 h; in the data active = GI50 below about 0.43 µM; inactive = the rest
Outcome field: choose from active, inactive

Reference set (5 entries):
1. CN(Cc1cnc2nc(N)nc(N)c2n1)c1c(Cl)cc(C(=O)NC(CCC(=O)O)C(=O)O)cc1Br (stereo not given); active
2. COc1cc2c(cc1OC)C(Sc1ccc(Cl)cc1)c1c(nc(N)c(C#N)c1N)O2 (stereo not given); inactive
3. NCC[PH+](c1ccccc1)c1ccccc1.NCC[PH+](c1ccccc1)c1ccccc1.[Cl-].[Pt+4]; inactive
4. O=C(Nc1ccc(-n2cc(-c3ccncc3)c(-c3ccc(Cl)c(O)c3)n2)cc1)c1ccc(Cl)c(Cl)c1; inactive
5. CC(C)(C)OC(=O)CC(S(=O)(=O)c1ccccc1)S(=O)(=O)c1ccccc1; inactive

I'd appreciate the recorded outcome for CN1CCC(C(=O)Nc2n[nH]c3nnc(-c4ccccc4)cc23)CC1 from this test.
inactive

What classification did Nc1nc2c([nH]1)c1[nH]c3ccccc3c1c1[nH]c3ccccc3c21 end up with in this test?
inactive

How did this test come out for C#CCN(CCCOc1ccc(Cl)cc1Cl)CCCSC(=O)CCCCCN1/C(=C\C=C2/CCCC(/C=C/C3=[N+](CCCCCC(=O)[O-])c4ccccc4C3(C)C)=C2Cl)C(C)(C)c2ccccc21 ?
inactive

Recorded call for O=C(/C=C/c1ccccn1)c1ccccc1 ?
inactive

Hi, sorry to bother you, what did the test record for Nc1c([N+](=O)[O-])ncn1C1OC(CO)C(O)C1O (stereo not given) ?
inactive

----------
Exercise: state measured TGI for each of the compounds provided.
- Tested on: K-562 leukemia
- assay: NCI tumour cell line growth inhibition, 48 h

Completed entries (count: 4):
1. COc1cc(-c2ccc[nH]2)[nH]c1/C=C1\N=C(C)C(C(=O)NC(C)C)=C1C; 15.2 µM
2. O=c1ccc(=O)c2c1c1[nH]c3ccccc3c1c1c(=O)c3ccccc3c(=O)c21; > 10 µM
3. O=C1Cc2c([nH]c3ccccc23)-c2cc(Br)ccc2N1; > 100 µM
4. COc1ccc([C@H]2c3[nH]c4ccccc4c3C[C@H]3C(=O)N(CCCCCCC(=O)NO)CC(=O)N23)cc1; > 33.3 µM

For the next question, use this compound.
Short answer for CC1(C)N=C(N)N=C(N)N1c1ccc(CCCCCCc2ccc(S(=O)(=O)F)cc2)cc1 : TGI was > 33.3 µM
